experiment: Acute oral toxicity of AN-10 (single dose, gavage); type: in vivo; conditions: rat, in vivo; single dose oral route, female Osborne-Mendel white rats
reported_endpoint: LD50

*Q* What LD50 value was documented for this compound, CCCCCCCCCC(=O)c1ccc(O)c(C(=O)Nc2ccc([N+](=O)[O-])cc2)c1 [AN-10, 5-n-decanoyl-4'-nitrosalicylanilide] ?
*A* > 2000 mg/kg

###

What follows is a record of MIC for Actinomyces viscosus.
Form entry: value (µg/mL) — number only.

CCCCCCCC(=O)c1ccc(O)c(C(=O)Nc2ccc([N+](=O)[O-])cc2)c1 [5-n-octoyl-4'-nitrosalicylanilide] = 0.125
CCCCCCCCCCCC(=O)c1ccc(O)c(C(=O)Nc2ccc([N+](=O)[O-])cc2)c1 [5-n-dodecoyl-4'-nitrosalicylanilide] = 0.05
CCCCCCCCCC(=O)c1ccc(O)c(C(=O)Nc2ccc(Br)cc2)c1 [5-n-decoyl-4'-bromosalicylanilide] = 0.125

*Q* Value wanted: MIC (Actinomyces viscosus) of entry CCCCCCCCCCCC(=O)c1ccc(O)c(C(=O)Nc2ccc(Br)cc2)c1 [5-n-dodecoyl-4'-bromosalicylanilide]
*A* 0.05

###

test system: A.viscosus; assay: Plaque growth inhibition in vitro on bovine tooth slabs, A.viscosus; assay type: cell-based, Actinomyces viscosus; conditions: Actinomyces viscosus, 2 min slab exposure, about 24 h incubation, aerobic, reliability + or -80% or better, read-out: ID50 Adherent Growth
reported_endpoint: pIC50
Notebook: values listed as pIC50 are -log10 of the concentration (mol/L).

[H]/N=C(\N/C(=N/[H])NCCCCCCNC(=N)NC(=N)Nc1ccc(Cl)cc1)Nc1ccc(Cl)cc1 = 4.54

// next item, pIC50 requested
*Q* Recorded pIC50 of CCCCCCCCCC(=O)c1ccc(O)c(C(=O)Nc2ccc([N+](=O)[O-])cc2)c1 [AN-10, 5-n-decanoyl-4'-nitrosalicylanilide] , please.
*A* 4.15
